- System: Charles River CD-1 mice
- Assay name: Intravenous acute tolerance in mice (LD50)
- Condition info: intravenous (tail vein) at 0.02 mL/g, CD-1 mice, 14 days observation, physiologic pH
Reported metric: LD50 (mmol/kg)
All answers are understood in mmol/kg, so give the number only.

O=C(O)CN1CCN(CC(=O)O)CCN(CC(=O)O)CCN(CC(=O)O)CC1	0.18
[Ca+2].[Cl-].[Cl-]	1.5
O=C([O-])CN1CCNCCN(CC(=O)[O-])CCN(CC(=O)[O-])CC1.[Gd+3]	5.7

Continue with the next compound.
Notebook: CC(O)CN1CCN(CC(=O)[O-])CCN(CC(=O)[O-])CCN(CC(=O)[O-])CC1.CC(O)CN1CCN(CC(=O)[O-])CCN(CC(=O)[O-])CCN(CC(=O)[O-])CC1.[Ca+2].[Ca+2].[Ca+2] (stereo not shown) [Ca[Ca(HP-DO3A)]2] , LD50 read as 1.3

These entries and their values trace back to patent US7385041B2.
